EXPERIMENTAL_SYSTEM: KRAS G12D binding to BRAF (Homo sapiens (Human), UniProt P01116+P62937, G12D)
Sequence (P01116-2 other isoform, or with tags, fused parts or gaps G12D): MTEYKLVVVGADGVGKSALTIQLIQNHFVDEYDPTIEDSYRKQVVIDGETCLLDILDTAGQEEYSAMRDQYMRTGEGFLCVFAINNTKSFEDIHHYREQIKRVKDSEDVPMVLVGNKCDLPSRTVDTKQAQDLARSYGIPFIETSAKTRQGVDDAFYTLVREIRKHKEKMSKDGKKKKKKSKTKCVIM
Sequence (P62937 whole entry): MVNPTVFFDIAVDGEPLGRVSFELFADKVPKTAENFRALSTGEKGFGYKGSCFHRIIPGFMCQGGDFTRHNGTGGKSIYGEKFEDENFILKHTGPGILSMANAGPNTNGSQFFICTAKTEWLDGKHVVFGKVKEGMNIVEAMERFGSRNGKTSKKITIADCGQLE
EXPERIMENTAL_DETAILS: KRAS-BRAF with CYPA (500 nM) interaction assay (TR-FRET), G12D
CONDITION_DESCRIPTION: GMPPNP loaded 6His-KRAS, GST-BRAF RBD, 3 hours
What IC50 was measured for each of the following?
State the value with its unit after it.

IC50 measured on CCn1c(-c2cc(N3CCOCC3)cnc2[C@H](C)OC)c2c3cc(c(F)cc31)-c1csc(n1)C[C@H](NC(=O)[C@H]1C[C@@H]1C)C(=O)N1CCC[C@H](N1)C(=O)OCC(C)(C)C2 (atropisomer, axis not shown; (M)) = 1.67 µM

What the record says about CO[C@@H](C)c1ncc(N2CCN(CC(F)(F)F)CC2)cc1-c1c2c3cc(c(F)cc3n1CC(F)(F)F)-c1csc(n1)C[C@H](NC(=O)[C@H]1C[C@@H]1C)C(=O)N1CCC[C@H](N1)C(=O)OCC(C)(C)C2 (atropisomer, axis not shown; (M)) : IC50 is 0.66 µM

Sure, the documented IC50 for CO[C@@H](C)c1ncc(N2CCN(C)CC2)cc1C1=C2CC(C)(C)COC(=O)[C@@H]3CCCN(N3)C(=O)[C@@H](NC(=O)[C@H]3C[C@@H]3C)Cc3nc(cs3)-c3ccc(c2c3)C1 (single isomer, unassigned) [Example A122, reference compound] is 0.124 µM

IC50 for CCn1c(-c2cc(N3CCN(C)CC3)cnc2[C@H](C)OC)c2c3cc(c(F)cc31)-c1csc(n1)C[C@H](NC(=O)[C@H]1C[C@@H]1C(F)F)C(=O)N1CCC[C@H](N1)C(=O)OCC(C)(C)C2 (atropisomer, axis not shown; (M)) is 1.72 µM

* * *

EXPERIMENTAL_SYSTEM: KRAS G12D binding to BRAF (Homo sapiens (Human), UniProt P01116+P62937, G12D)
EXPERIMENTAL_DETAILS: KRAS-BRAF with CYPA (500 nM) interaction assay (TR-FRET), G12D
CONDITION_DESCRIPTION: GMPPNP loaded 6His-KRAS, GST-BRAF RBD, 3 hours
I'd appreciate it if you could supply IC50 values for the items below.
Reply with just the number (in µM).

Tested system KRAS G12D binding to BRAF (Homo sapiens (Human), UniProt P01116+P62937, G12D); IC50 recorded for CCn1c(-c2cc(N3CCN(C)CC3)cnc2[C@H](C)OC)c2c3cc(c(F)cc31)-c1csc(n1)C[C@H](NC(=O)[C@H]1[C@@H]3COC[C@@H]31)C(=O)N1CCC[C@H](N1)C(=O)OCC(C)(C)C2 (atropisomer, axis not shown; (M)) was 0.957

// assay KRAS G12D binding to BRAF (Homo sapiens (Human), UniProt P01116+P62937, G12D), entry CO[C@@H](C)c1ncc(N2CCN(C)CC2)cc1-c1c2c3c(F)c(ccc3n1CC(F)(F)F)-c1csc(n1)C[C@H](NC(=O)[C@H]1C[C@@H]1C)C(=O)N1CCC[C@H](N1)C(=O)OCC(C)(C)C2 (atropisomer, axis not shown; (M)) , IC50 value = 0.02

* * *

Please provide measured IC50 for the entries that follow.
EXPERIMENTAL_SYSTEM: KRAS G12C-BRAF complex (Homo sapiens (Human), UniProt P01116+P62937, G12C)
Sequence (P01116-2 other isoform, or with tags, fused parts or gaps G12C, one chain of several): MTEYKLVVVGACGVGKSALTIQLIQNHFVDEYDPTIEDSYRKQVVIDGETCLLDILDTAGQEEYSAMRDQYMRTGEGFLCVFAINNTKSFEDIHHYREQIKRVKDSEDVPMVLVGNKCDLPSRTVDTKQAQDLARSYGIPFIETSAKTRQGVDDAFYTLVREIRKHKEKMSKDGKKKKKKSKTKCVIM
EXPERIMENTAL_DETAILS: KRAS-BRAF with CYPA (500 nM) interaction assay (TR-FRET), G12C
Type: binding
CONDITION_DESCRIPTION: GMPPNP loaded 6His-KRAS, GST-BRAF RBD, 3 hours
Method: KRAS-BRAF with CYPA (500 nM) Interaction Assay In this example, TR-FRET was also used to measure the compound or compound-CYPA dependent disruption of the KRAS G12C-BRAF complex. This protocol was also used to measure disruption of KRAS G12D or KRAS G12V binding to BRAF by a compound of the invention, respectively. […] TR-FRET signal was read on a PHERstar FSX microplate reader (Ex320 nm, Em 665/615 nm). […]
State just the number; it will be interpreted in µM.

compound CO[C@@H](C)c1ncc(N2CCN(C)CC2)cc1C1=C2CC(C)(C)COC(=O)[C@@H]3CCCN(N3)C(=O)[C@@H](NC(=O)[C@H]3C[C@@H]3C)Cc3nc(cs3)-c3ccc(c2c3)C1 (single isomer, unassigned) [Example A122, reference compound] , IC50 observed: 0.013

Documented IC50 of CCn1c(-c2cc(N3CCN(C)CC3)cnc2[C@H](C)OC)c2c3cc(c(F)cc31)-c1csc(n1)C[C@H](NC(=O)[C@H]1C[C@@H]1C(F)F)C(=O)N1CCC[C@H](N1)C(=O)OCC(C)(C)C2 (atropisomer, axis not shown; (M)) : 0.196

response.value for CCn1c(-c2cc(N3CCOCC3)cnc2[C@H](C)OC)c2c3cc(c(F)cc31)-c1csc(n1)C[C@H](NC(=O)[C@H]1C[C@@H]1C)C(=O)N1CCC[C@H](N1)C(=O)OCC(C)(C)C2 (atropisomer, axis not shown; (M)) (field: IC50) = 0.16

Documented IC50 of CO[C@@H](C)c1ncc(N2CCN(CC(F)(F)F)CC2)cc1-c1c2c3cc(c(F)cc3n1CC(F)(F)F)-c1csc(n1)C[C@H](NC(=O)[C@H]1C[C@@H]1C)C(=O)N1CCC[C@H](N1)C(=O)OCC(C)(C)C2 (atropisomer, axis not shown; (M)) : 0.09

* * *

Task for the reader: assign each of the following compounds its reported IC50.
EXPERIMENTAL_SYSTEM: KRAS G12V binding to BRAF (Homo sapiens (Human), UniProt P01116+P62937, G12V)
Sequence (P01116-2 other isoform, or with tags, fused parts or gaps G12V): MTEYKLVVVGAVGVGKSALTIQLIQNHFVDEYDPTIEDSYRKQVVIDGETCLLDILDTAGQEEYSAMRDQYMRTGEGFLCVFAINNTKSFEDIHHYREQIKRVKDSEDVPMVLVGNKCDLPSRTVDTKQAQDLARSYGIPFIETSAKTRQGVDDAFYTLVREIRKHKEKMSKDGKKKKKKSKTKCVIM
Sequence (P62937 whole entry): as the sequence (P62937 whole entry) above
EXPERIMENTAL_DETAILS: KRAS-BRAF with CYPA (500 nM) interaction assay (TR-FRET), G12V
CONDITION_DESCRIPTION: GMPPNP loaded 6His-KRAS, GST-BRAF RBD, 3 hours
Experimental: KRAS-BRAF with CYPA (500 nM) Interaction Assay In this example, TR-FRET was also used to measure the compound or compound-CYPA dependent disruption of the KRAS G12C-BRAF complex. This protocol was also used to measure disruption of KRAS G12D or KRAS G12V binding to BRAF by a compound of the invention, respectively. […] TR-FRET signal was read on a PHERstar FSX microplate reader (Ex320 nm, Em 665/615 nm). […]

# IC50 (compound: CCn1c(-c2cc(N3CCN(C)CC3)cnc2[C@H](C)OC)c2c3cc(c(F)cc31)-c1csc(n1)C[C@H](NC(=O)[C@H]1C[C@@H]1C(F)F)C(=O)N1CCC[C@H](N1)C(=O)OCC(C)(C)C2 (atropisomer, axis not shown; (M)) [Example 3] ) is 0.243 µM

Memo: CCn1c(-c2cc(N3CCN(C)CC3)cnc2[C@H](C)OC)c2c3cc(c(F)cc31)-c1csc(n1)C[C@H](NC(=O)[C@H]1C[C@@H]1C)C(=O)N1CCC[C@H](N1)C(=O)OCC(C)(C)C2 (atropisomer, axis not shown; (M)) [Example 1] , reported IC50: 0.211 µM

Memo: CO[C@@H](C)c1ncc(N2CCN(C)CC2)cc1-c1c2c3c(F)c(ccc3n1CC(F)(F)F)-c1csc(n1)C[C@H](NC(=O)[C@H]1C[C@@H]1C)C(=O)N1CCC[C@H](N1)C(=O)OCC(C)(C)C2 (atropisomer, axis not shown; (M)) [Example 10] , reported IC50: 0.013 µM

Reference for the values: patent US20250250284A1
